B1: INTS3 (parent)
chain: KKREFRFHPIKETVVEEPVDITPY

variants of: B1; experiment: protein stability index of a GFP-peptide fusion (GPS, HEK-293T) (PSI 1-6); higher = more stable; conditions: c terminus: a fixed tail appended;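 further: lentivirally expressed fusions sorted by FACS into six bins by GFP to DsRed ratio, PSI derived from sequencing read proportions per bin multiplied by bin number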
For each of the variants below, state its protein stability index.
Lab note: record just the number, no unit beside it.

Task: If you can, please state the reported protein stability index value of F5D .
Output: 4.4

Task: Consider the variant V15L and give its measured protein stability index.
Output: 1.73

Task: Look up protein stability index: R6A
Output: 3.97

Task: Query: protein stability index; subject: V15K
Output: 1.39

Task: Would you mind telling me what protein stability index value was observed for Y24I ?
Output: 2.33

Task: # query: protein stability index of entry E4S
Output: 1.33

Task: Recorded protein stability index of V19N , please.
Output: 2.02

Task: // returns reported protein stability index for input K2V
Output: 1.37

Task: Form field: reported protein stability index of P9V
Output: 2.63

Task: What protein stability index value was documented for this variant, P9F ?
Output: 2.17

Task: Value lookup for protein stability index; key = V14H
Output: 1.89

Task: GET /values?readout=protein stability index&item= I21T
Output: 1.95

Task: Give its protein stability index value. Item: Y24N
Output: 2.03

Task: State the recorded protein stability index for this entry: K11T
Output: 1.97

Task: For the variant shown here, E16P , give the reported protein stability index.
Output: 2.54

Task: Endpoint output: protein stability index of P23N . Value?
Output: 1.84

Task: I'd like to know its protein stability index. The variant in question is Y24T
Output: 2.24

Task: Would you mind telling me what protein stability index value was observed for K1V ?
Output: 2.74

Task: Consider the variant shown here: V15G What is its recorded protein stability index?
Output: 1.49

Task: Report protein stability index for H8R please.
Output: 4.07

Task: Reported protein stability index for E17R : what is it?
Output: 2.32

Task: Quick one: protein stability index of Y24S ?
Output: 1.84

Task: Can you share its protein stability index? I mean this variant: F7I
Output: 4.23

Task: Which protein stability index reading was recorded for the variant V15P ?
Output: 2.13

Task: Please report the recorded protein stability index for E16I .
Output: 2.29

Task: Need protein stability index, item F5T
Output: 4.52

Task: Dear colleague, I am looking for the recorded protein stability index of the following variant: H8G
Output: 3.93

Task: I would be grateful if you could share the reported protein stability index for R6L .
Output: 4.15

Task: Request the reported protein stability index associated with K11M
Output: 2.64

Task: Given the entry F5Q , report its measured protein stability index.
Output: 4.37

Task: I'd like to know its protein stability index. The variant in question is P18H
Output: 1.74

Task: Endpoint output: protein stability index of I10W . Value?
Output: 3.25

Task: Fill in the blank: the reported protein stability index of D20G is ____.
Output: 2.15

Task: Name the reported protein stability index value associated with the variant P18L
Output: 1.85

Task: protein stability index for V14T ?
Output: 1.42

Task: For the variant K11Q , what protein stability index is on record?
Output: 1.82

Task: # get_value(readout='protein stability index', item= R3Y )
Output: 2.25

Task: What value of measured protein stability index is listed for R6N ?
Output: 4.25

Task: Please give the measured protein stability index for this variant: I10H
Output: 2.09

Task: Param item = H8D ; retrieve measured protein stability index.
Output: 4.47

Task: Which measured protein stability index value corresponds to K2A ?
Output: 1.56

Task: What value of measured protein stability index is listed for I10F ?
Output: 2.69

Task: I have this variant here, R3I , and I need its recorded protein stability index.
Output: 2.25

Task: # input variant: V15Y ; wanted: its protein stability index
Output: 1.84

Task: Entry P9E : reported protein stability index = ?
Output: 3.18

Task: // protein stability index lookup, key: T22W
Output: 1.3
